# Experiment Summary: Size distribution, polydispersity and Z-potential of LNPs by dynamic light scattering (Malvern Zetasizer)
# Type: physicochemical
# Condition Parameters: LNPs, standard formulation 50:10:38.5:1.5; DLS
Value Type: Z Potential (± D.E.) [mV] (mV)

[A] CCCCCCCCCCCCC(CCCCCCCCCC)COC(=O)CCSCC(CC(=O)NCCCN1CCOCC1)C(=O)OC(CCCCCCCC)CCCCCCCC (centres unmarked)
[B] CCCCCCCC#CCOC(=O)CCSCCC(NC(=O)C(CCCCCC)CCCCCCCC)C(=O)NC1CCN(C)CC1 (centres unmarked)
[C] CCCCCCCCCCCCCOC(=O)CCSCCC(NC(=O)C(CCCCCC)CCCCCCCC)C(=O)NCCCN(C)C (centres unmarked)
[D] CCCCCCCCCCCCOC(=O)CCSCCC(NC(=O)C(CCCCCC)CCCCCCCC)C(=O)NCCN1CCN(C)CC1 (centres unmarked)
q: Rank items: key Z Potential (± D.E.) [mV], increasing. Return value: ordered labels per request.
a: B, A, D, C

[a] CCCCCCCCC(CCCCCCCC)OC(=O)C(CSCCC(=O)OCCCCCCCC(C)C)CC(=O)NCCCn1ccnc1 (centres unmarked)
[b] CCCCCCCCCCCCCCOC(=O)CCSCC(CC(=O)NCCCn1ccnc1)C(=O)OC(CCCCCCCC)CCCCCCCC (centres unmarked)
q: Returns the identifier with the smallest measured Z Potential (± D.E.) [mV] among a and b . Record your answer as the label of the chosen record.
a: b

[1] CCCCCCCCC(CCCCCCCC)OC(=O)C(CCSCCC(=O)OCCCCCCCC(C)C)C(=O)NCCCn1ccnc1 (centres unmarked)
[2] CCCCCCCCCCCCOC(=O)CCSCCC(NC(=O)C(CCCCCC)CCCCCCCC)C(=O)NCCN(CC)CC (centres unmarked)
q: Which value of Z Potential (± D.E.) [mV] is greater, the one for 1 or the one for 2 ? // caller expects the label of the chosen entry
a: 2

====

# Experiment Summary: Size distribution, polydispersity and Z-potential of LNPs by dynamic light scattering (Malvern Zetasizer)
# Type: physicochemical
# Condition Parameters: LNPs, standard formulation 50:10:38.5:1.5; DLS
Value Type: Particle size/ Ø (nm)

{"Compound": "CCCCCCCC/C=C\\CCCCCCCC(=O)NC(CCSCCC(=O)OCC(CCCCCCCCCC)CCCCCCCCCCCC)C(=O)NCCCN1CCOCC1 (stereo not shown)", "Measured Number": 175.8}
{"Compound": "CCCCCCCCC(CCCCCC)C(=O)NC(CCSCCC(=O)OCCCCCC(C)C)C(=O)NC1CCN(C)CC1 (stereo not shown)", "Measured Number": 156.7}
{"Compound": "CCCCCCCCC(CCCCCC)C(=O)NC(CCSCCC(=O)OCCCCCC(C)C)C(=O)NCC1CCN(C)CC1 (stereo not shown)", "Measured Number": 152.3}
{"Compound": "CCCCCCCC#CCOC(=O)CCSCCC(NC(=O)CCCCCCCCCCCCCCCCC)C(=O)NCCCN1CCOCC1 (stereo not shown)", "Measured Number": 192.8}

====

# Experiment Summary: RNA encapsulation efficiency of LNPs by Quant-IT Ribogreen
# Format: physicochemical
# Condition Parameters: LNPs with luciferase mRNA; ionizable lipid:non-cationic lipid:sterol:PEG-modified lipid 50:10:38.5:1.5; percentage of RNA entrapped in the LNP
Value Type: Encaps. efficiency (%)

{"Compound": "CCCCCCCCC(CCCCCC)C(=O)NC(CCSCCC(=O)OCCCCCC(C)C)C(=O)NCCN1CCN(C)CC1 (stereo not shown)", "Encaps. efficiency (%)": 86.70}
{"Compound": "CCCCCCCCCCCCCOC(=O)CCSCCC(NC(=O)C(CCCCCC)CCCCCCCC)C(=O)NCCCn1ccnc1 (stereo not shown)", "Encaps. efficiency (%)": 92.30}
{"Compound": "CCCCCCCC/C=C\\CCCCCCCCOC(=O)CCSCCC(NC(=O)C(CCCCCC)CCCCCCCC)C(=O)NCCN(CC)CC (stereo not shown)", "Encaps. efficiency (%)": 60.57}
{"Compound": "CCCCCCCC#CCOC(=O)CCSCCC(NC(=O)C(CCCCCC)CCCCCCCC)C(=O)NCCN(CC)CC (stereo not shown)", "Encaps. efficiency (%)": 62.45}
{"Compound": "CCCCCCCCCCCCOC(=O)CCSCCC(NC(=O)C(CCCCCC)CCCCCCCC)C(=O)NCCCN1CCCC1 (stereo not shown)", "Encaps. efficiency (%)": 94.64}
{"Compound": "CCCCCCCCC(CCCCCC)COC(=O)C(CSCCC(=O)OCCCCCCCC(C)C)CC(=O)NC1CCN(C)CC1 (stereo not shown)", "Encaps. efficiency (%)": 97.90}
{"Compound": "CCCCCCCC/C=C\\CCCCCCCCOC(=O)CCSCCC(NC(=O)C(CCCCCC)CCCCCCCC)C(=O)NC1CCN(C)CC1 (stereo not shown)", "Encaps. efficiency (%)": 84.48}

====

# Experiment Summary: Size distribution, polydispersity and Z-potential of LNPs by dynamic light scattering (Malvern Zetasizer)
# Format: physicochemical
# Condition Parameters: LNPs, standard formulation 50:10:38.5:1.5; DLS
Value Type: Z Potential (± D.E.) [mV] (mV)

{"Compound": "CCCCCCCCCCCCCCCCCCOC(=O)CCSCCC(NC(=O)C(CCCCCC)CCCCCCCC)C(=O)NC1CCN(C)CC1 (stereo not shown)", "Z Potential (± D.E.) [mV] [mV]": -13.70}
{"Compound": "CCCCCCCCCCCCOC(=O)CCSCCC(NC(=O)C(CCCCCC)CCCCCCCC)C(=O)NCCCN1CCCC1 (stereo not shown)", "Z Potential (± D.E.) [mV] [mV]": 5.96}
{"Compound": "CCCCCCCCCCCCOC(=O)CCSCCC(NC(=O)C(CCCCCC)CCCCCCCC)C(=O)NCC1CCN(C)CC1 (stereo not shown)", "Z Potential (± D.E.) [mV] [mV]": 5.52}
{"Compound": "CCCCCCCCCCCCCOC(=O)CCSCCC(NC(=O)C(CCCCCCCC)CCCCCCCCCC)C(=O)NCC1CCN(C)CC1 (stereo not shown)", "Z Potential (± D.E.) [mV] [mV]": -2.76}

====

# Experiment Summary: Apparent pKa of LNPs comprising the ionizable lipid (Table 6)
# Condition Parameters: standard formulation 50:10:38.5:1.5
Value Type: Apparent pKa

{"Molecule": "CCCCCCCCCCCCCCCCOC(=O)CCSCCC(NC(=O)C(CCCCCC)CCCCCCCC)C(=O)NCCCN1CCCC1 (stereo not shown)", "Measured Number": 7.24}
{"Molecule": "CCCCCCCCCCCCCCCCCC(=O)NC(CCSCCC(=O)OCC(CCCCCC)CCCCCCCC)C(=O)NC1CCN(C)CC1 (stereo not shown)", "Measured Number": 7.75}
{"Molecule": "CCCCCCCCCCCCCOC(=O)CCSCCC(NC(=O)C(CCCCCC)CCCCCCCC)C(=O)NCCCn1ccnc1 (stereo not shown)", "Measured Number": 5.91}
{"Molecule": "CCCCCCCCOC(=O)CCSCC(CC(=O)NCCCn1ccnc1)C(=O)OC(CCCCCCCC)CCCCCCCC (stereo not shown)", "Measured Number": 6.11}
{"Molecule": "CCCCCCCCOC(=O)CCSCC(CC(=O)NC1CCN(C)CC1)C(=O)OCC(CCCCCC)CCCCCCCC (stereo not shown)", "Measured Number": 7.87}
{"Molecule": "CCCCCCCCCCC(CCCCCCCC)C(=O)NC(CCSCCC(=O)OCC(CC)CCCC)C(=O)NCC1CCN(C)CC1 (stereo not shown)", "Measured Number": 7.39}
{"Molecule": "CCCCCCCCC(CCCCCC)COC(=O)C(CSCCC(=O)OCCCCCC(C)C)CC(=O)NC1CCN(C)CC1 (stereo not shown)", "Measured Number": 8.11}

====

# Experiment Summary: Size distribution, polydispersity and Z-potential of LNPs by dynamic light scattering (Malvern Zetasizer)
# Assay type: physicochemical
# Condition Parameters: LNPs, standard formulation 50:10:38.5:1.5; DLS
Value Type: Z Potential (± D.E.) [mV] (mV)

Some solved entries appear below for comparison.
{"Compound": "CCCCCCCC#CCOC(=O)CCSCCC(NC(=O)CCCCCCC/C=C\\CCCCCCCC)C(=O)NCCCN1CCOCC1 (stereo not drawn) [VC-LC-0354]", "Unit Descriptor": "mV", "Z Potential (± D.E.) [mV]": -0.57}
{"Compound": "CCCCCCCCC(CCCCCC)C(=O)NC(CCSCCC(=O)OCCCCCC(C)C)C(=O)NC1CCN(C)CC1 (stereo not drawn) [VC-LC-0217]", "Unit Descriptor": "mV", "Z Potential (± D.E.) [mV]": -2.41}
{"Compound": "CCCCCCCCCCCCCCOC(=O)CCSCCC(NC(=O)C(CCCCCC)CCCCCCCC)C(=O)NCCCN(C)C (stereo not drawn) [VC-LC-0104]", "Unit Descriptor": "mV", "Z Potential (± D.E.) [mV]": 0.00}
{"Compound": "CCCCCCCCCCCCCOC(=O)CCSCC(CC(=O)NCCCN1CCOCC1)C(=O)OC(CCCCCCCC)CCCCCCCC (stereo not drawn) [VC-LC-0540]", "Unit Descriptor": "mV", "Z Potential (± D.E.) [mV]": -8.47}
{"Compound": "CCCCCCCCC(CCCCCC)C(=O)NC(CCSCCC(=O)OCCCCCC(C)C)C(=O)NCC1CCN(C)CC1 (stereo not drawn) [VC-LC-0498]", "Unit Descriptor": "mV", "Z Potential (± D.E.) [mV]": 1.06}

[I] CCCCCCCCCCC(CCCCCCCC)C(=O)NC(CCSCCC(=O)OCC(CC)CCCC)C(=O)NCC1CCN(C)CC1 (stereo not drawn) [VC-LC-0510]
[II] CCCCCCCCCCCCOC(=O)CCSCC(CC(=O)NCCCN1CCOCC1)C(=O)OC(CCCCCCCC)CCCCCCCC (stereo not drawn) [VC-LC-0544]
q: # returns the entry with the larger Z Potential (± D.E.) [mV]; inputs I and II I would appreciate it if you answered with the label of your choice.
a: I
